Source: PubChem BioAssay AID330

System: P388 leukemia ip, CD2F1 mice, survival T/C
ASSAY INFO: NCI In Vivo Anticancer Drug Screen. Data for tumor model P388 Leukemia (intraperitoneal) in CD2F1 (CDF1) mice
CONDITION LABEL: endpoint: median survival time; dose: 12.5 mg/kg/injection; schedule: Q01DX005 (ip); vehicle: saline; higher = longer survival
Toxic doses and inconclusive results are not listed.
T/C values, listed per item

# annotated cases, reported T/C shown
MOLECULE	T/C
O=C(OCCOCCN1CCCCC1)C1c2ccccc2Sc2ccc(Cl)cc21 (centres undefined)	100 % of control
CN(C)CCC=C1c2ccccc2CCc2ccccc21	101 % of control
CCN(CC)CCNc1c(C)ccc2cccnc12	102 % of control

Would you kindly look at the next entry?
Problem: Which value of T/C has been reported for "NNC(=O)c1cccc2ccccc12" in the records?
Solution: 98 % of control
